- measured_on: abc isoform of human TMEM16A channel expressed in CHO cells (Homo sapiens, UniProt Q5XXA6, DEL476-501)
- Sequence (Q5XXA6 with tags, fused parts or gaps isoform Q5XXA6-5 DEL539-564): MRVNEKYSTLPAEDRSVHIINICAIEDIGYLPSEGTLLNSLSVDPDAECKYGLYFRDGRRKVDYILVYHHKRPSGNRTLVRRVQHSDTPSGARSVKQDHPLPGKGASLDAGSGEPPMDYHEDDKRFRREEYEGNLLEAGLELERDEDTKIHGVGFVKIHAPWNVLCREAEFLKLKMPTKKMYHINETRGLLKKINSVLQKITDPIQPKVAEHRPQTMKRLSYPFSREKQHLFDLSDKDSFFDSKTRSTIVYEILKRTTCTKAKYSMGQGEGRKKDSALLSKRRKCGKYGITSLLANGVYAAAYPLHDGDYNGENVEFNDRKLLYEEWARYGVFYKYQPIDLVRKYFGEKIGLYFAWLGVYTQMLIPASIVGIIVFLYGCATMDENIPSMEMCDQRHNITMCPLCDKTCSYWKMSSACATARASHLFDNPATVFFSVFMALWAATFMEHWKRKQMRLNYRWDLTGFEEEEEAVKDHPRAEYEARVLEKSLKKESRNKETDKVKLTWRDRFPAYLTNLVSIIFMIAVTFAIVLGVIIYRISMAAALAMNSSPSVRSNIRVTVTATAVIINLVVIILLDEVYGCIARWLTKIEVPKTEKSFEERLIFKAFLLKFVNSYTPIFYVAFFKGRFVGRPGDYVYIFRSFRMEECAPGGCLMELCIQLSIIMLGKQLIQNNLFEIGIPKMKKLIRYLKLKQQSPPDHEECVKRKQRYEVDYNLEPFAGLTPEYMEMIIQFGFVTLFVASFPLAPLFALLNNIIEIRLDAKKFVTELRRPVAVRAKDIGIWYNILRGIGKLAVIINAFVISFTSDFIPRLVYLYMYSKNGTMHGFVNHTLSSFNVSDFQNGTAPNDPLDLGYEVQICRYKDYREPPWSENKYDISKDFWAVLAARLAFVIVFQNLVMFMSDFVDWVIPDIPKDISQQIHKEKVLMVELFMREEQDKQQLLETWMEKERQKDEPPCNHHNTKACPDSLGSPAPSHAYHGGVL
- assay_summary: Automated patch clamping (QPatch) assay to measure TMEM16A activity in whole-cell
- experimental_context: CHO cells expressing human TMEM16A (abc), whole-cell automated patch clamp, Hill fit; read-out: TMEM16A QPATCH assay EC50 V3 EC50
Structures can show the parent of a compound that is named as a salt.
observation_type: EC50 (nM)

# annotated cases, reported EC50 shown
| molecule | EC50 [nM] |
| --- | --- |
| COC(=O)[C@@H](NC(=O)c1cnc(-c2cccc(-c3cc(C(=O)NC(C4CC4)C4CC4)n(CC(O)C(F)(F)F)n3)c2)o1)C(C)C (stereo partly shown) [Example 6.1] | 120 |
| CCC(CC)NC(=O)c1cnc(-c2cccc(-c3cc(C(=O)NC(CC)CC)n(CCO)n3)c2)o1 [Example 9.7] | 90 |
| CCC(CC)NC(=O)c1cc(-c2cccc(-c3ncc(C(=O)N[C@@H](COC(C)(C)C)C(=O)OC(C)(C)C)o3)c2)[nH]n1 [Example 1.50, Trifluoroacetate] | 450 |

(A) CCC(CC)NC(=O)c1cnc(-c2cccc(-c3cc(C(=O)NC(C)(C)c4ccccc4)n[nH]3)c2)o1 [Example 3.54]
(B) CCC(CC)NC(=O)c1cc(-c2cccc(-c3ncc(C(=O)N[C@@H](C)CC)o3)c2)[nH]n1 [Example 1.45]
-- ask Given the listed items, does A or B have the lesser reported EC50? Respond using the label that marks the chosen record.
-- reply A
(A: 60 nM, B: 710 nM)
